# Test system: UO-31 renal
# Experiment description: NCI tumour cell line growth inhibition, 48 h; in the data active = GI50 below about 0.43 µM; inactive = the rest
Outcomes: active, inactive

CCOC(=O)c1cc2c(c3ccsc13)C1(C)CCC3c4ccc(OC)cc4CCC3C1C2 (stereo not drawn) = inactive
COc1ccc2c(c1)C(=O)c1c-2n(CCCNCCO)c(=O)c2ccccc12 = active
CC(C)[C@]12O[C@H]1[C@@H]1O[C@]13[C@]1(O[C@H]1C[C@H]1C4=C(CC[C@@]13C)C(=O)OC4)[C@@H]2OC(=O)CN(C)C = active
O=C(Nc1cccc(-c2cccc(F)c2)c1)C1CCN(Cc2cccc3cccnc23)CC1 = inactive
CCN(CC)CCOc1ccc(/C=C2\CC3C4CC=C5C[C@@H](N6CCCC6)CC[C@]5(C)C4CC[C@]3(C)[C@H]2OC(C)=O)cc1OC (stereo partly drawn) = inactive
COc1ccc(S(=O)(=O)Nc2cc(/C=C\c3cc(OC)c(OC)c(OC)c3)cc(OC)c2OC)cc1 = active
Cn1cc(C2=C(c3cn(CCSC(=N)N)c4ccccc34)C(=O)NC2=O)c2ccccc21 = inactive
CCCCCCNC(=O)Nc1ccc2cc3ccc(NC(=O)NCCCCCC)cc3nc2c1 = inactive
